# Procedure Details: WST-1 cytotoxicity test, statements over all cell lines
# Format: cell-based, human
# Test Conditions: human, 10 µM, across all the 10 cell lines tested, read-out: percentage of viable cells
Parameter: viability at 48 h, 10 µM

>>> observed_value("COc1ccc2nc3c(c(NCCN4CCNCC4)c2c1)CCCC3.Cl.Cl.Cl")
"< 44%"

---

# maps each entry to its viability at 48 h, 10 µM
# Procedure Details: WST-1 cytotoxicity test, MCF-7
# Type: cell-based
# Test Conditions: human, MCF-7 cells; MCF-7, 10 µM, 48 h, WST-1, mean ± SD of three experiments; read-out: relative viability (%) compared to untreated control
Parameter: viability at 48 h, 10 µM (%)

>>> observed_value("Cl.Cl.Cl.OCCN1CCN(CC(O)CNc2ccccc2)CC1 (stereo not drawn)")
98
>>> observed_value("Cl.Cl.Cl.OCCN1CCN(CCCNc2ccccc2)CC1")
101
>>> observed_value("Cc1cc(OCC(O)CN2CCN(CCO)CC2)ccc1Cl.Cl.Cl (stereo not drawn)")
105
>>> observed_value("Cl.Cl.Cl.OCCN1CCN(CCCNc2cccc3ccccc23)CC1")
102
>>> observed_value("Cl.Cl.OC(CNc1ccccc1)CNc1ccccc1")
100
>>> observed_value("COc1ccc2nc3c(c(NCCN4CCN(CCO)CC4)c2c1)CCCC3.Cl.Cl.Cl")
84
>>> observed_value("OCCN1CCN(CC(O)CN2CCN(CCO)CC2)CC1")
101
>>> observed_value("COc1ccc2nc3c(c(NCCN4CCNCC4)c2c1)CCCC3.Cl.Cl.Cl")
15
>>> observed_value("COc1ccc(NCCCN2CCN(CCO)CC2)cc1.Cl.Cl.Cl")
105

Where do these numbers come from? They come from paper PMC7038073.
